Test system: HT29 colon
Assay: NCI tumour cell line growth inhibition, 48 h; in the data active = GI50 below about 0.43 µM; inactive = the rest
Returns: one label drawn from active, inactive

Worked set:
compound: COc1ccc(OC)c(-c2c(C#N)c(N)nc(N3CCOCC3)c2C#N)c1
label.value: inactive
--
compound: COc1ccc(C(=O)c2cc3c(N)c(C(=O)Nc4cccc5ccccc45)sc3nc2C)cc1
label.value: active
--
compound: C[C@@H]1CC[C@H]2C(C(O)CCCCC(O)C3=C(C(F)(F)F)O[C@@H]4O[C@@]5(C)CC[C@H]6[C@H](C)CC[C@@H]3[C@@]46OO5)=C(C(F)(F)F)O[C@@H]3O[C@@]4(C)CC[C@@H]1[C@]32OO4 (some centres undefined)
label.value: inactive
--
compound: COc1ccc2c(c1)C(=O)c1c-2c(N(C)C)nc2ccccc12
label.value: inactive
--
compound: COc1ccc(/C=C2\CCCC3=C2NC(N)=NC3c2ccc(OC)c(OC)c2)cc1OC (centres undefined)
label.value: inactive

Lookup: What is the recorded call for this compound in the test? "O=C(NN1C(=O)CSC12CCCC2)c1[nH]c2ccc(Br)cc2c1-c1ccccc1"
Found: inactive

Lookup: Continue with "Nc1[nH]nc2nc(-c3cccs3)cc(C(F)(F)F)c12"
Found: inactive

Lookup: Continue with "O=c1nc2oc3ccc4ccccc4c3cc-2s1"
Found: inactive

Lookup: Continue with "O=C(Nc1cccc(NC(=O)Nc2cc(C(F)(F)F)ccc2Cl)c1)Nc1cc(C(F)(F)F)ccc1Cl"
Found: inactive

* * *

Tested on: COLO 205 colon
Assay: NCI tumour cell line growth inhibition, 48 h; in the data active = GI50 below about 0.43 µM; inactive = the rest
Returns: one label drawn from true (1) for active, false (0) for inactive

Worked set:
compound: C[CH2][Sn]([CH2]C)([O]C(=O)C(OC(C)=O)c1ccccc1)[O]C(=O)C(OC(C)=O)c1ccccc1 (configuration not stated)
label.value: false (0)
--
compound: Cc1ccc(CNc2c3ccccc3nc3cc(NC(=O)CCN4CCCC4)ccc23)cc1
label.value: true (1)
--
compound: Nc1nc(Nc2ccc(C3CCC(N4CCOCC4)CC3)cc2)nn1-c1ccccn1 (configuration not stated)
label.value: false (0)

Lookup: What is the recorded call for this compound in the test? C[C@@H]1CC[C@H]2C(C(O)CCCCC(O)C3=C(C(F)(F)F)O[C@@H]4O[C@@]5(C)CC[C@H]6[C@H](C)CC[C@@H]3[C@@]46OO5)=C(C(F)(F)F)O[C@@H]3O[C@@]4(C)CC[C@@H]1[C@]32OO4 (some centres not stated)
Found: false (0)

Lookup: Continue with "COc1ccc(OC)c(-c2c(C#N)c(N)nc(N3CCOCC3)c2C#N)c1"
Found: false (0)

Lookup: Continue with "Cc1ccc(S(=O)(=O)Nc2cccc3[nH]c(C(F)(F)F)nc23)cc1"
Found: true (1)

Lookup: Continue with "NC(=O)c1c(NC(=O)c2ccc3c(c2)OCO3)sc2c1CCC(=O)C2"
Found: false (0)

Lookup: Continue with "O=C(NN1C(=O)CSC12CCCC2)c1[nH]c2ccc(Br)cc2c1-c1ccccc1"
Found: false (0)

Lookup: Continue with "CCCOC(=O)N1CCN(/[N+]([O-])=N/Oc2ccc([N+](=O)[O-])cc2[N+](=O)[O-])CC1"
Found: false (0)

Lookup: Continue with CC1=C2C(=CC(C)(C)C2O)C(=O)C(C)(O)C12CC2 (configuration not stated)
Found: true (1)

Lookup: Continue with O=[N+]([O-])c1cccc([As]=[As]c2cccc([N+](=O)[O-])c2)c1 (configuration not stated)
Found: true (1)

Lookup: Continue with "COc1ccc2c(c1)C(=O)c1c-2c(N(C)C)nc2ccccc12"
Found: false (0)

* * *

Test system: NCI-H522 lung
Test: NCI tumour cell line growth inhibition, 48 h
value.kind: TGI

compound.structure.string: O=C(Nc1ccccc1)N(CCCCN(Cc1ccccc1)C(=O)Nc1ccccc1)Cc1ccccc1
value.kind: TGI
measured.result: > 100 µM
//
compound.structure.string: CSc1n[nH]c(N)c1C(=O)Nc1ccc(C)cc1
value.kind: TGI
measured.result: > 100 µM
//
compound.structure.string: COc1ccc(C(=O)Cc2ccc(Br)cc2)cc1OC
value.kind: TGI
measured.result: > 100 µM

Lookup: What value of TGI has been reported for the following compound? "C=C(CO[Si](C)(C)C(C)(C)C)C(C)=O"
Found: 17.3 µM

Lookup: Continue with "COc1ccc(OC)c(NC(=O)CCC/C(CC(=O)c2ccc(O)c(OC)c2)=N\Nc2ccc([N+](=O)[O-])cc2)c1"
Found: > 100 µM

* * *

Below, each entry is listed alongside its reported TGI.
System: UO-31 renal
Assay: NCI tumour cell line growth inhibition, 48 h

molecule: C/C=C(/C)C(=O)O[C@H](C[C@@H](C)[C@H]1CC(c2ccoc2)OC1=O)[C@@]1(C)C(=O)CCC2O[C@]21C (some centres undefined)
measured.result: > 100 µM

molecule: CN1CCN(CCCBr)CC1
measured.result: > 100 µM

molecule: Cc1ccc(N2C(=O)C3C=CC(n4[nH]c(=O)n(Cc5ccccc5)c4=O)CC3C2=O)cc1 (centres undefined)
measured.result: > 100 µM

molecule: COc1ccc(-c2cc(-c3cc4cc(Br)ccc4nc3Cl)c(C#N)c(N)n2)cc1
measured.result: > 12.5 µM

Lookup: What value of TGI has been reported for the following molecule? "COc1ccc(-c2cc(-c3ccc(Nc4ccnc5cc(Cl)ccc45)cc3)[nH]c(=O)c2C#N)c2ccccc12"
Found: 15.2 µM

Lookup: Continue with CCOc1cc(C2CC(c3ccc(NS(=O)(=O)c4cc([N+](=O)[O-])ccc4C)cc3)=NN2c2ccc([N+](=O)[O-])cc2[N+](=O)[O-])ccc1O (centres undefined)
Found: 39.8 µM

* * *

Below, each entry is listed alongside its reported GI50.
Tested on: SK-MEL-2 melanoma
Assay: NCI tumour cell line growth inhibition, 48 h

compound.structure.string: CC[C@H](CO)Nc1nc(NCc2ccccc2)n2ncc(C(C)C)c2n1
target.or.test.system: SK-MEL-2 melanoma
GI50: 1.47 µM

Lookup: What value of GI50 has been reported for the following compound? "CCOc1ccccc1N=Nc1c(C)[nH]n(-c2nc(-c3ccccc3)cs2)c1=O"
Found: 27.3 µM

Lookup: Continue with "Clc1nc(Cl)c2ncn(C/C=C/COc3cccc(OC/C=C/Cn4cnc5c(Cl)nc(Cl)nc54)c3)c2n1"
Found: > 100 µM

* * *

System: UACC-62 melanoma
Assay: NCI tumour cell line growth inhibition, 48 h; in the data active means GI50 below about 0.43 µM; inactive means the rest
Returns: one label drawn from active, inactive

Worked set:
molecule: COc1ccc(OC)c(-c2c(C#N)c(N)nc(N3CCOCC3)c2C#N)c1
label.value: inactive
//
molecule: COc1ccc(C(=O)/C=C/c2c(Cl)c3c(c(OC)c2Cl)OCC(=O)N3)cc1
label.value: inactive
//
molecule: O=C(COc1ccc(/C=C2\Oc3ccccc3C2=O)cc1)Nc1nc2c(s1)CCCC2
label.value: inactive
//
molecule: Cc1cc(N2CCCC2)nc(N(CCNc2ccnc3cc(Cl)ccc23)Cc2ccco2)n1
label.value: inactive
//
molecule: CC1(C)[C@@H](OC(N)=O)[C@H]2O[C@H]2[C@]2(CO)[C@H]3CC[C@]4(C)[C@@H](c5ccc(=O)oc5)[C@@H](Cl)C[C@]4(O)C3=CC[C@@H]12
label.value: active

Please examine the following record next.
Lookup: What is the recorded call for this molecule in the test? "CC(C)(O)CC(=O)NCCn1ccc2ncnc(Nc3ccc(Oc4cccc(C(F)(F)F)c4)c(Cl)c3)c21"
Found: inactive

* * *

System: NCI-H460 lung
Assay: NCI tumour cell line growth inhibition, 48 h
value.kind: TGI

Examples with their reported TGI follow.
compound: CC1=C2C(=CC(C)(C)C2O)C(=O)C(C)(O)C12CC2 (stereo not given)
TGI: 0.0412 µM

compound: CC(C)C(OC(=O)c1ccc(NCc2cc(O)ccc2O)cc1)C(C)C
TGI: 14.7 µM

compound: COc1ccc(OC)c(-c2c(C#N)c(N)nc(N3CCOCC3)c2C#N)c1
TGI: > 100 µM

compound: CN(C)c1ccc2c(c1)OC(N)=C(C#N)C2c1ccc2c(c1)CCO2 (stereo not given)
TGI: 18.3 µM

compound: COc1ccc2c(c1)C(=O)c1c-2c(N(C)C)nc2ccccc12
TGI: > 100 µM

compound: CCCCCCCCCCCCCCCCCCNc1ccn(C2OC(COP(=O)(O)OCC3OC(n4cc(F)c(NCCCCCCCCCCCCCCCCCC)nc4=O)CC3O)C(O)C2O)c(=O)n1 (stereo not given)
TGI: > 100 µM

// below: TGI requested for another compound
Lookup: What value of TGI has been reported for the following compound? Cc1c2c(n(CCc3ccc(Cl)cc3)c1C)NC(c1ccccc1)C(C#N)S2(=O)=O (stereo not given)
Found: > 100 µM

* * *

Tested on: SK-MEL-5 melanoma
Test: NCI tumour cell line growth inhibition, 48 h
Below, each entry is listed alongside its reported TGI.

compound: COc1cc2cc[n+]3c(C)c4cc(OC)c(OC)cc4c([O-])c3c2cc1OC
TGI: > 100 µM
--
compound: COc1ccc(C)cc1Nc1nnc(-c2ccccc2N)s1
TGI: 29.4 µM

// below: TGI requested for another compound
Lookup: Checklist item: TGI tested on SK-MEL-5 melanoma, entry C[C@@H]1CC[C@H]2C(C(O)CCCCC(O)C3=C(C(F)(F)F)O[C@@H]4O[C@@]5(C)CC[C@H]6[C@H](C)CC[C@@H]3[C@@]46OO5)=C(C(F)(F)F)O[C@@H]3O[C@@]4(C)CC[C@@H]1[C@]32OO4 (stereo partly drawn) , value?
Found: > 100 µM
